tested on: P. falciparum stage V gametocytes; parameters: BacTiter-Glo ATP luminescence viability of purified stage V gametocytes in 384-well plates, per cent inhibition versus DMSO; conditions: 48 h, 5 µM; inhibitor
In all, about 13,000 compounds went through this assay and about 3,200 (25%) showed an effect of 50% or more. The list shows a part of the results.
PROPERTY_LABEL: % Inhibition (%)
Value expressed in %; do not type the unit.

Known results for compounds:
COc1ccccc1N1CCN(C(C(=O)NCc2cccc(F)c2)c2ccc(C)cc2)CC1 (centres unmarked) ... 14.65
CC(=O)N(C)c1cccc(CNc2cc(C)nc(Nc3ccc(C)cc3)n2)c1 ... 7.958
Fc1ccc(-c2cncc(-c3ccc(F)cc3)n2)cc1 ... -9.929

According to the records, this compound COc1ccc(F)cc1-c1ccccc1CNC(=O)c1cnn(-c2ccc([N+](=O)[O-])cc2)c1C(F)(F)F displays % Inhibition of -26.92

According to the records, this compound Cc1cccc2[nH]c(-c3ccc(-c4cccc(NC(=O)CCc5cnc[nH]5)c4)cc3)nc12 displays % Inhibition of 72.28

According to the records, this compound FC(F)(F)c1ccc2c(C=Cc3ccncc3)c[nH]c2c1 displays % Inhibition of 12.06

According to the records, this compound COc1ccc(C(=O)NCc2ccccc2-c2ccc(C(C)(C)C)cc2)cc1O displays % Inhibition of -20.55

According to the records, this compound O=S1(=O)NCc2ccc(Nc3nccc(Nc4ccc5c(cnn5Cc5ccccc5)c4)n3)cc21 displays % Inhibition of -68.79

According to the records, this compound O=c1cc(N2CCNCC2)c(Cl)nn1Cc1ccc(NS(=O)(=O)c2ccc(Oc3ccccc3)cc2)cc1 displays % Inhibition of 10.25

According to the records, this compound O=C(NCCN1CCOCC1)c1csc(C2CCCN(C(=O)c3ccc(O)c(-c4cc(Cl)cc(Cl)c4)c3)C2)n1 (centres unmarked) displays % Inhibition of 11.07

According to the records, this compound C#CCCC(=O)Nc1cccc(-c2cccc(-c3nc4c(C)cccc4[nH]3)c2)c1 displays % Inhibition of 61.5

According to the records, this compound CCN1C(=O)N(CCC(C)C)C2(CCN(Cc3ccc(OC)cc3O)CC2)C1=O displays % Inhibition of 63.13

According to the records, this compound O=c1cc(NCCCNCc2scc(I)c2I)[nH]c2ccccc12 displays % Inhibition of -12.68

According to the records, this compound C=CC[C@H](C[C@H](O)[C@H](Cc1ccccc1)NC(=O)c1nn(-c2ccccc2)nc1C)C(=O)NC1CCCCC1 displays % Inhibition of -47.48

According to the records, this compound Cc1ccc(Nc2nc(C)cc(NCc3ccc(-n4ccnc4)cc3)n2)cc1 displays % Inhibition of 13.72

According to the records, this compound O=C(Nc1n[nH]c2nc(-c3ccco3)c(Br)cc12)c1ccc(CN2CCCC2)cc1 displays % Inhibition of 10.19

According to the records, this compound CC(Oc1ccc(Cl)cc1Cl)c1nc(-c2ccc(NC(=O)c3ccco3)cc2)no1 (centres unmarked) displays % Inhibition of -1.611

---

system: P. falciparum stage V gametocytes; design: BacTiter-Glo ATP luminescence viability of purified stage V gametocytes in 384-well plates, per cent inhibition versus DMSO; conditions: 48 h, 5 µM; inhibitor
Hit rate of the full screen: of about 13,000 compounds, about 3,200 (25%) showed an effect of 50% or more. The list shows a part of the results.
I would appreciate it if you labelled entries Y when % Inhibition is -10% or higher, otherwise N.

Quick check, % Inhibition >= -10%? Cc1ccc(Nc2nc3cc(N(C)c4ccnc(Nc5cccc(CCS(C)(=O)=O)c5)n4)ccc3n2C)cc1
N

Quick check, % Inhibition >= -10%? Cc1ccc(Nc2nccc(N(C)c3ccc4c(c3)nc(NC(=O)Cc3ccc(Cl)c(Cl)c3)n4C)n2)cc1S(N)(=O)=O
Y

Quick check, % Inhibition >= -10%? COc1ccccc1NC(=O)CSc1nc2cccnc2n1-c1ccccc1OC
Y

Quick check, % Inhibition >= -10%? CN(c1ccc2c(c1)nc(NC(=O)C1(c3cc(F)ccc3F)CC1)n2C)c1ccnc(Nc2cccc(CS(C)(=O)=O)c2)n1
N
